Entries and their Genotoxicity test, With S9 rat liver extract, Bscl 2, 25
# System: Bscl2-GFP
# PROCEDURE DETAILS: ToxTracker genotoxicity assay, Bscl2-GFP reporter induction
# DETAILS: GFP induction vs vehicle at 25% cytotoxicity; 3 h exposure with S9, 24 h recovery
Answer as a quantity: numeral, then unit.

Here's what some known entries look like.
| MOLECULE | VALUE |
| --- | --- |
| CCCCCCCCCC(=O)OCC(CN1CC1C)OC(=O)NC1CCC(CC2CCC(NC(=O)OC(COC(=O)CCCCCCCCC)CN3CC3C)CC2)CC1 (stereo not drawn) | 1.1 fold |
| CCCCOCC(CN1CC1C)OC(=O)NCCCCCCn1c(=O)n(CCCCCCNC(=O)OC(COCCCC)CN2CC2C)c(=O)n(CCCCCCNC(=O)OC(COCCCC)CN2CC2C)c1=O (stereo not drawn) | 1.0 fold |
| CCCCOCC(CN1CC1C)OC(=O)NCCCCCCNC(=O)OC(COCCCC)CN1CC1C (stereo not drawn) [Comp. Ex. 10, reference compound] | 1.5 fold |
| C=CCOCC(CN1CC1C)OC(=O)NCCCCCCn1c(=O)n(CCCCCCNC(=O)OC(COCC=C)CN2CC2C)c(=O)n(CCCCCCNC(=O)OC(COCC=C)CN2CC2C)c1=O (stereo not drawn) | 1.2 fold |
| CC1CN1C1CCCCC1OC(=O)NCCCCCCn1c(=O)n(CCCCCCNC(=O)OC2CCCCC2N2CC2C)c(=O)n(CCCCCCNC(=O)OC2CCCCC2N2CC2C)c1=O (stereo not drawn) | 1.2 fold |

q: Please report the measured Genotoxicity test, With S9 rat liver extract, Bscl 2, 25 for CCC(CN1CC1C)OC(=O)NCCCCCCn1c(=O)n(CCCCCCNC(=O)OC(CC)CN2CC2C)c(=O)n(CCCCCCNC(=O)OC(CC)CN2CC2C)c1=O (stereo not drawn)
a: 1.3 fold

q: Supply Genotoxicity test, With S9 rat liver extract, Bscl 2, 25 value. Item: CC(CN1CC1C)OC(=O)NCC1(C)CC(NC(=O)OC(C)CN2CC2C)CC(C)(C)C1 (stereo not drawn) [Comp. Ex. 7, reference compound]
a: 1.6 fold

q: Supply reported Genotoxicity test, With S9 rat liver extract, Bscl 2, 25 belonging to this molecule: CCCCCCCCCC(=O)OCC(CN1CC1C)OC(=O)NC(C)(C)c1cccc(C(C)(C)NC(=O)OC(COC(=O)CCCCCCCCC)CN2CC2C)c1 (stereo not drawn)
a: 1.2 fold

q: # return recorded Genotoxicity test, With S9 rat liver extract, Bscl 2, 25 for input Cc1ccccc1OCC(CN1CC1C)OC(=O)NCCCCCCn1c(=O)n(CCCCCCNC(=O)OC(COc2ccccc2C)CN2CC2C)c(=O)n(CCCCCCNC(=O)OC(COc2ccccc2C)CN2CC2C)c1=O (stereo not drawn)
a: 1.3 fold

q: Tell me measured Genotoxicity test, With S9 rat liver extract, Bscl 2, 25 for CC(CN1CC1C)OC(=O)NC1CCC(CC2CCC(NC(=O)OC(C)CN3CC3C)CC2)CC1 (stereo not drawn) [Comp. Ex. 9, reference compound] please.
a: 1.6 fold

q: Please list Genotoxicity test, With S9 rat liver extract, Bscl 2, 25 recorded for the molecule CCCCOCC(CN1CC1C)OC(=O)NCCCCCCN1C(=O)N(CCCCCCNC(=O)OC(COCCCC)CN2CC2C)C1=O (stereo not drawn)
a: 1.2 fold

q: Report Genotoxicity test, With S9 rat liver extract, Bscl 2, 25 for CC(CN1CC1C)OC(=O)NCCCCCCNC(=O)OC(C)CN1CC1C (stereo not drawn) [Comp. Ex. 6, reference compound]
a: 2.1 fold
